MEASURED TARGET: T1, CD71 apical domain (human, UniProt P02786 189-383, limits assumed)
T1 construct: domain: apical domain
T1 sequence (P02786 189-383 limits assumed): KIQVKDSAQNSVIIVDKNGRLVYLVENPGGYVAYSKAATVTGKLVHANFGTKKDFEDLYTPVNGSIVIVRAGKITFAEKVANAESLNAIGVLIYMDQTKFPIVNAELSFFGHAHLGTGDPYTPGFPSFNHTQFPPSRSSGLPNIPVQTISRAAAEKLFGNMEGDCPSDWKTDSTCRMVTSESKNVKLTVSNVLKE
RUN DESCRIPTION: solution ELISA screen, signal ratio to HSA control
RESULT TYPE: apical domain:HSA (ratio)

a. SEQ ID NO 258 (designed binder, not shown: small tags and cut ends) MLPAPKNLVVSRVTEDSARLSWTAPDAAFDSFYIAYAEPRPDGEAILLEVPGSERSYDLTGLKPGTEYSVLIHGVKGGLLSSPLVAFFTT
b. SEQ ID NO 257 (designed binder, not shown: small tags and cut ends) MLPAPKNLVVSRVTEDSARLSWTAPDAAFDSFYIAYAEPRPDGEAIQLGVPGSERSYDLTGLKPGTEYSVLIHGVKGGLLSSPLRAYFTT
Prompt: Which entry has a larger number for apical domain:HSA, a or b ? # answer = label of selected item
Response: a
(a: 277 ratio, b: 162 ratio)
